Every entry's value here was drawn from patent US20210100246A1.

# procedure_summary: Accelerated stability test of 5% solutions in commercial solvents (54° C., 2 weeks, HPLC)
# Assay type: physicochemical
# run_parameters: solvent RPDE (dimethyl glutarate, dimethyl succinate, dimethyl adipate)
readout_type: percentage of degradation (%)

Consider the reported percentage of degradation for these molecules:
CCCCCCSc1nc(C)c(N=CN(C)CC)cc1C : 1.93
CCN(C)C=Nc1cc(C)c(SCc2c(F)cccc2F)nc1C : 1.13

1 = CCN(C)C=Nc1cc(C)c(SCC2CCCCC2)nc1C
2 = CCN(C)C=Nc1cc(Br)c(SCc2cccc(C(F)(F)F)c2)nc1C
API: POST /compare with 1 and 2 ; response names the item with higher percentage of degradation. Reply briefly: the label of your chosen item. 1
(1: 1.71%, 2: 0.78%)

====

The molecules listed here are annotated with their Phytotoxicity % N.F. (leaf necrosis).
# System: wheat seedlings
# procedure_summary: Phytotoxicity (percentage of leaf necrosis) on wheat seedlings
# Assay type: in vivo
# run_parameters: 250 ppm; wheat seedlings; scale 0-100
# Experimental: Leaves of wheat plants of the Salgemma variety, grown in pots in a conditioned environment at 20° C. and 70% of Relative Humidity (RH) were treated by spraying both sides of the leaves with the compound under examination (see Table 4 hereunder) dispersed in a hydroacetonic solution at 20% by volume of acetone. […]
Field: numeric (% N.F.). Do not append units.

CCN(C)C=Nc1cc(C)c(SCC2CCCCC2)nc1C : 0

Phytotoxicity % N.F. (leaf necrosis) lookup needed for `CCN(C)C=Nc1cc(C)c(SCc2c(F)cccc2F)nc1C` , thanks. 0

I am curious: what Phytotoxicity % N.F. (leaf necrosis) value has been reported for CCN(C)C=Nc1cc(Br)c(OCCC(C)C)nc1C [CR1, reference compound] ? 10

Consider the molecule shown here: `CCN(C)C=Nc1cc(C)c(SCCC(C)C)nc1C` What is its recorded Phytotoxicity % N.F. (leaf necrosis)? 0

Returns the measured Phytotoxicity % N.F. (leaf necrosis) for the input molecule. Input: `CCN(C)C=Nc1cc(Br)c(SCc2cccc(C(F)(F)F)c2)nc1C` 0

What value of Phytotoxicity % N.F. (leaf necrosis) has been reported for the following molecule? `CCN(C)C=Nc1cc(Br)c(SCCC(C)C)nc1C` 0

What value of measured Phytotoxicity % N.F. (leaf necrosis) is listed for `CCCCCCSc1nc(C)c(N=CN(C)CC)cc1C` ? 0

====

# procedure_summary: Accelerated stability test of 5% solutions in commercial solvents (54° C., 2 weeks, HPLC)
# Type: physicochemical
# run_parameters: solvent CME (rapeseed methyl ester)
readout_type: percentage of degradation (%)

CCN(C)C=Nc1cc(Br)c(SCc2cccc(C(F)(F)F)c2)nc1C [Compound 1] : 10.79
CCCCCCSc1nc(C)c(N=CN(C)CC)cc1C [Compound 17] : 16
CCN(C)C=Nc1cc(C)c(SCc2c(F)cccc2F)nc1C [Compound 39] : 17.31
CCN(C)C=Nc1cc(C)c(SCC2CCCCC2)nc1C [Compound 40] : 12.76

====

# Tested on: Puccinia Recondita
# procedure_summary: Preventive fungicidal activity (5 days) against Puccinia Recondita on wheat
# Assay type: in vivo
# run_parameters: 125 ppm; wheat; treated parts (T)
Examples of compounds with documented Activity P5 T (reduction of leaf area affected, parts treated directly) follow.
Please reply with the bare figure in % and do not write the unit itself.

CCN(C)C=Nc1cc(Br)c(SCCC(C)C)nc1C [Compound 5] : 85

# evaluate next
Reported Activity P5 T (reduction of leaf area affected, parts treated directly) for CCN(C)C=Nc1cc(Br)c(SCc2cccc(C(F)(F)F)c2)nc1C [Compound 1] : what is it? 98
